# credit: ChEMBL document CHEMBL6087432

test.method.notes: Cytotoxicity against mouse L929 cells assessed as cell viability at 100 uM measured after 24 hrs by MTT assay relative to control
Format: toxicity, cell-based
experimental.setup: read-out: Activity
experimental.readout: viability at 24 h, 100 µM

chemical.smiles	result
CN(C)c1ccc(/C=C/C(=O)c2cccc(Br)c2)cc1	> 70%
COc1cc(OC)c(OC)cc1/C=C/C(=O)c1ccc(Br)cc1	> 60%
CSc1ccc(/C=C/C(=O)c2cccc(Br)c2)cc1	> 70%
O=C(/C=C/c1ccccc1F)c1ccc(Br)cc1	> 60%
O=C(/C=C/c1ccccc1)c1cccc(Br)c1	> 60%
